- system.name: recombinant pentameric gH complex (Towne strain) (human cytomegalovirus, Towne strain) (UniProt P17176)
- Sequence (P17176 30-715, one chain of several): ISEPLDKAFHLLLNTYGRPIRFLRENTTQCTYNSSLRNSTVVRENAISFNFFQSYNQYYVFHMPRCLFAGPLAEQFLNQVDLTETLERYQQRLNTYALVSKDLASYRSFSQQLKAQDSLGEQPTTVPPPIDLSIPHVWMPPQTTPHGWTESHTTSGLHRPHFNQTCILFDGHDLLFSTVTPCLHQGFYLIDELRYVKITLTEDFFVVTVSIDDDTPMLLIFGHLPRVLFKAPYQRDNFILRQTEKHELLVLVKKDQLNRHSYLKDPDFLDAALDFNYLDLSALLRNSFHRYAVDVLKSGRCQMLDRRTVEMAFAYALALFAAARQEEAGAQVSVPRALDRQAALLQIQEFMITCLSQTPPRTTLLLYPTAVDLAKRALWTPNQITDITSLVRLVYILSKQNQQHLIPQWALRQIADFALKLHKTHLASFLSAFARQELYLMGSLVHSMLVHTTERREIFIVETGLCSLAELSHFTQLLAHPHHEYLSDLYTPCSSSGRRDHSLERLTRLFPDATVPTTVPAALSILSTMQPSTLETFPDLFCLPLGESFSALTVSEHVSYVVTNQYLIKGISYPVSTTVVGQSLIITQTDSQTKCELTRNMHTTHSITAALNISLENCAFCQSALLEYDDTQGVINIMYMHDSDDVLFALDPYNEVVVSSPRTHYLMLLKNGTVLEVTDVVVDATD
- assay.overview: BLI competition on His-pentamer; competitor (antibody 2): 1-85
experimental.endpoint: Pair-wise inhibition (%)
State just the number; it will be interpreted in %.

Tell me the measured Pair-wise inhibition (%) of 2-18 (antibody, V domains shown) VH: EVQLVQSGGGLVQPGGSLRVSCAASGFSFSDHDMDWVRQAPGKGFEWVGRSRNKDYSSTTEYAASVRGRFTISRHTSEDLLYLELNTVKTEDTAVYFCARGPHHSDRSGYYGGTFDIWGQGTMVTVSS VL: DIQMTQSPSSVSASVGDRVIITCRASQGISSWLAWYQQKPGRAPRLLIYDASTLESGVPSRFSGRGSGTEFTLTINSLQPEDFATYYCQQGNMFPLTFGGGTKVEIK , please.
10

Tell me the measured Pair-wise inhibition (%) of 3-16 (antibody, V domains shown) VH: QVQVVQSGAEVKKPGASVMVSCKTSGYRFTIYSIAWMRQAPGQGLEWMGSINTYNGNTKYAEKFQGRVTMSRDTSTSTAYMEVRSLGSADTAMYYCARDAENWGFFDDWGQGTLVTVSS VL: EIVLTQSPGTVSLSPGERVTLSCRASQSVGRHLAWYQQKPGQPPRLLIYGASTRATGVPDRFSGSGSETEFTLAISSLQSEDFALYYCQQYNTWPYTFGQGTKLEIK , please.
16

Tell me the measured Pair-wise inhibition (%) of 3-7 (antibody, V domains shown) VH: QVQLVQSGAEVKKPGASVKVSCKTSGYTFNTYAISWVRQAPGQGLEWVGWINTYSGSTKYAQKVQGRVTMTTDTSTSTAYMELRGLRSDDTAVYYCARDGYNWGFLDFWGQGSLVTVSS VL: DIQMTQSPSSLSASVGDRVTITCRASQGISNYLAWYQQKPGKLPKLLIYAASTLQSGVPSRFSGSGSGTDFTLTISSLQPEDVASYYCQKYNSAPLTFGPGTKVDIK , please.
35

Tell me the measured Pair-wise inhibition (%) of 1-85 (antibody, V domains shown) VH: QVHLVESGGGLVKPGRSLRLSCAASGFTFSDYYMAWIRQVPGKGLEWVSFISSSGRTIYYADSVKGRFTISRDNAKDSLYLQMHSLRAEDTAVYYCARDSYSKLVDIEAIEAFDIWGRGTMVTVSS VL: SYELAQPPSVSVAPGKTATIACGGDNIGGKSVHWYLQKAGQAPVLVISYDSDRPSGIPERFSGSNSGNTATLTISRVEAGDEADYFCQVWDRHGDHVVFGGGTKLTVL , please.
87

Now for the binder whose Pair-wise inhibition (%) we want.
Tell me the measured Pair-wise inhibition (%) of 1-150 (antibody, V domains shown) VH: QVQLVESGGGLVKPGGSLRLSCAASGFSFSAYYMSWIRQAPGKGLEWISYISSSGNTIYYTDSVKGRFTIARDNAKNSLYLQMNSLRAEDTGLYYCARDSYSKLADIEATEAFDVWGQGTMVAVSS VL: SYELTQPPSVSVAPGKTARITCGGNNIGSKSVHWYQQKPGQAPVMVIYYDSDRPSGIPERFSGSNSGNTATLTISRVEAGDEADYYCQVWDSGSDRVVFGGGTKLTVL , please.
61

This collection of values is drawn from patent US11230591.
